Numbers sourced from the RNAGym collection of RNA variant scans (doi:10.7554/elife.80360).

B1: CPEB3 Ribozyme (parent)
chain: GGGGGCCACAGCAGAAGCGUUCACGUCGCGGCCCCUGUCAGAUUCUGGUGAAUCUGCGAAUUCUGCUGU

Variants of: B1
Method summary: self-cleavage, relative activity (ratio to wild type); higher = more cleavage; co-transcriptional
Note that class boundaries on self-cleavage are low value (below 0.2), medium value (0.2 to below 0.6), high value (0.6 or more)

Examples with answers:
Record sequence	Label
GGGGGCUACAGCAGAAGCGUUCACGUCGCGGCCCCUGGCAGAUUCUGGUGAAUCUGCGAAUUCUGCUGU [C7U U38G]	low value
GGGGGCCACAGCAGAAGCGUUCACGUCGCGGCCCCUGUCAGAUUCUGUUCAAUCUGCGAAUUCUGCUGU [G48U G50C]	high value
GGGGGCCACAUCAGAAGCGUUCACGUCGCGCCCCCUGUCAGAUUCUGGUGAAUCUGCGAAUUCUGCUGU [G11U G31C]	low value
GGGGGCCACAGCAGAAGCGUUCACGUCGCGGCCCCUGUCAGAUUCUCGUGAAUCUGCAAAUUCUGCUGU [G47C G58A]	high value
GGGGGCCACAGCAGAAGCGUUCACGUCGCGGCCCCUGUCAGAUUCUGGUAAAUCUACGAAUUCUGCUGU [G50A G56A]	high value
GGGGGCCACAGCAGAAGCGUUCGCGUCGGGGCCCCUGUCAGAUUCUGGUGAAUCUGCGAAUUCUGCUGU [A23G C29G]	medium value
GGGGGCCACAGCUGAAGCGUUCACGUCGCGGCCCCUGUCAGAUUCUGGUGAAUCUGCGAAUUCUCCUGU [A13U G65C]	medium value
GGGGGGCACAGCAGAAGCGAUCACGUCGCGGCCCCUGUCAGAUUCUGGUGAAUCUGCGAAUUCUGCUGU [C6G U20A]	low value

Req: Class? Entry: GGGGGCCACAGCAGAAGUGUUCACGUCGCGGCCCCUCUCAGAUUCUGGUGAAUCUGCGAAUUCUGCUGU [C18U G37C]
Resp: low value

Req: For GCGGGCCACAGCAGAAGCGUUCACGUCGCGGCCCCUGUCAGAUUCUGGUGCAUCUGCGAAUUCUGCUGU [G2C A51C] then?
Resp: low value

Req: Query CGGGGCCACAGCAGAAGCGUUCACGUCGCGGCCCCUGUCAGAUACUGGUGAAUCUGCGAAUUCUGCUGU [G1C U44A] next
Resp: medium value

Req: // repeat for GGGGGCCACAGCAGAAGCGUUCACGUCGCGGCCCCUGUCAGUUUCCGGUGAAUCUGCGAAUUCUGCUGU [A42U U46C] and report
Resp: high value

Req: Field entry: GGGGGCCACAGCAGAGGCGUUCACGUCGCGGCCCCUCUCAGAUUCUGGUGAAUCUGCGAAUUCUGCUGU [A16G G37C]
Resp: low value

Req: Field entry: CGGGGCCACAGCAGAAGCGUUCACGUCGCGGCCCCUGUCAGAUUCUAGUGAAUCUGCGAAUUCUGCUGU [G1C G47A]
Resp: medium value

Req: Another variant to check: GGGGGCAACAGCAGAAGCGUUCACGUCGUGGCCCCUGUCAGAUUCUGGUGAAUCUGCGAAUUCUGCUGU [C7A C29U]
Resp: medium value

Req: Another variant: GGGGGCCACAGGAGAAGCGUUCACGUCGCGGCCCUUGUCAGAUUCUGGUGAAUCUGCGAAUUCUGCUGU [C12G C35U]
Resp: high value

Req: Repeat for the following variant: GGGGGCCACAGCAGAAGCGUUCACGUCGCAGCCCCUGUCAGAUUCUGGUGAAUCUGCGAAUUCUGCUGC [G30A U69C]
Resp: high value

Req: Then what about the variant GGGGGCAACAGCAGAAGCGUUCACGUCGCGGCCCGUGUCAGAUUCUGGUGAAUCUGCGAAUUCUGCUGU [C7A C35G] ?
Resp: low value

Req: Repeat with GGGGGCCACAGCAGAAGCGGUCACGUCGCGGCCCCUGUCAGAUUCUGGUGAAUCUGCGAAUUCUGCUGG [U20G U69G]
Resp: medium value

Req: Same thing, different variant: CGGGGCCACAGCAGAAGCGUUCACGUCGCGGCCCCUGUCAGAUUCUGGUGAAUCUGCCAAUUCUGCUGU [G1C G58C]
Resp: medium value

Req: How about this variant: GGGGGCCACAGCAGAAAGGUUCACGUCGCGGCCCCUGUCAGAUUCUGGUGAAUCUGCGAAUUCUGCUGU [G17A C18G]
Resp: low value

Req: Another variant: GGGGGCCACAACAGAAGCGUUCACGUCGCGGCCCCUGUCAGAUUCUGGUGAAUCUGAGAAUUCUGCUGU [G11A C57A]
Resp: medium value

Req: Also check GGGGGCCACAGCAGAAACGUUCACGUCGCGGCCCCUGUCAGAUACUGGUGAAUCUGCGAAUUCUGCUGU [G17A U44A]
Resp: medium value

Req: Try this variant next: GGGGGCCACAGGAGAAGCGUUCACGUCGCGGCCCCUGUCAGAUUCUGGUGAAUCAGCGAAUUCUGCUGU [C12G U55A]
Resp: medium value

Req: Subsequent entry: GGGGGCCACACCAGAAGCGUUCACGUCGCGGCCCCUGUCAGAUUCUGGUGAAUUUGCGAAUUCUGCUGU [G11C C54U]
Resp: high value

Req: What do we get for GGGGGCCACAGCAGAAGCGUUCACGUCGCGGCCCCUGUCAGAUUCUGGUGAAUCUCCGAAAUCUGCUGU [G56C U61A] ?
Resp: medium value

Req: Please give the result for GGGGUCCACAGCAGAAGCGUUCACGUCGCGGCCCCUGUCAUAUUCUGGUGAAUCUGCGAAUUCUGCUGU [G5U G41U] too.
Resp: low value

Req: Also GGGGGCCACACCAGAAGCGUUCACGUUGCGGCCCCUGUCAGAUUCUGGUGAAUCUGCGAAUUCUGCUGU [G11C C27U] , if possible.
Resp: low value

Req: Here is the next variant: GGGGGUCACAGCAGAAGCGUUCAUGUCGCGGCCCCUGUCAGAUUCUGGUGAAUCUGCGAAUUCUGCUGU [C6U C24U]
Resp: high value
